# Tested on: HUVEC
# assay: Percentage inhibition against growth factor induced tube formation by human umbilical vein endothelial cells (HUVEC) at 10 ug/mL concentration
# Assay type: functional
Mark Yes for reported inhibition at 10 µg/mL of 10% or greater; mark No for anything smaller.

>>> label_class("C=C1[C@@H](O[Si](C)(C)C(C)(C)C)C[C@H]2C(C)(C)CCC[C@]2(C)[C@H]1/C=C/c1ccoc1")
"Yes"
>>> label_class("C=C1[C@H](O[Si](C)(C)C(C)(C)C)C[C@H]2C(C)(C)CCC[C@]2(C)[C@H]1/C=C/c1ccoc1")
"No"
>>> label_class("C=C1[C@@H](O)C[C@H]2C(C)(C)CCC[C@]2(C)[C@H]1C[C@@H](O)c1ccoc1")
"No"
>>> label_class("C=C1[C@@H](O)C[C@H]2C(C)(C)CCC[C@]2(C)[C@H]1/C=C/c1ccoc1")
"Yes"
>>> label_class("C=C1[C@H](O)C[C@H]2C(C)(C)CCC[C@]2(C)[C@H]1/C=C/c1ccoc1")
"Yes"
>>> label_class("C=C1[C@@H](O[Si](C)(C)C(C)(C)C)C[C@H]2C(C)(C)CCC[C@]2(C)[C@H]1C[C@H](O)c1ccoc1")
"Yes"
